These data points were gathered from the supplement of paper PMC9732359.

Reported protein stability index values follow for various sequences
experiment: protein stability index of a GFP-peptide fusion (yeast GPS) (PSI 1-4); higher = more stable; sorted into four equal gates, so the index is relative within each strain; conditions: san1∆

Sequence content: HYGNEHIRRMVPLAMGI [RPN1]
protein stability index: 1.24
--
Sequence content: LNAANYNIDANVIDTQR [ECM29]
protein stability index: 3.18
--
Sequence content: KELELERKEREDFQKRQ [SWI1]
protein stability index: 3.32
--
Sequence content: DKSLDSSNASFNNQGKL [MED1]
protein stability index: 2.68
--
Sequence content: DLPISSTDNEAITISNS [SMC1]
protein stability index: 2.7
--
Sequence content: SLTLSFIRHVAKLNYKN [ECM29]
protein stability index: 2.91
--
Sequence content: DFIQNVGRLWDQTFPIN [ECM29]
protein stability index: 3.31
--
Sequence content: LLRIQMLLCVSYFLQER [PCI8]
protein stability index: 1.35
--
Sequence content: GGGWDNVDQTKTQCPNY [RPC11]
protein stability index: 3.07
--
Sequence content: QESSSTLSTHSTTTSVN [SIN4]
protein stability index: 3.12
--
Sequence content: AVVVGTGNIKHEDLVNS [COR1]
protein stability index: 2.93
--
Sequence content: PFDQNLDSNNNNSNSNN [SWI1]
protein stability index: 2.84
--
Sequence content: QWLNNALKRSYGIFGEG [POP8]
protein stability index: 3.08
--
Sequence content: TSSQKEPFFLVTKITDM [SRB8]
protein stability index: 2.52
--
Sequence content: NVNNNNIGQQQVKKPRK [SWI1]
protein stability index: 3.29
--
Sequence content: DDPSKVRLLCRSDGMGN [YLR335W/NUP2]
protein stability index: 2.98
--
Sequence content: NNCEDFVSRPDRTMLAP [FAS1]
protein stability index: 2.93
--
Sequence content: LKENEENEDGNIEERKE [BRR2]
protein stability index: 3.13
--
Sequence content: QLAVANEIIRSLSDEVM [SIR4]
protein stability index: 2.59
--
Sequence content: DLTQLLEKERSILDDIK [SMC4]
protein stability index: 2.66
--
Sequence content: AFFTYDAGVTFNKEQLN [ECM29]
protein stability index: 2.63

----------
assay: protein stability index of a GFP-peptide fusion (yeast GPS) (PSI 1-4); higher = more stable; sorted into four equal gates, so the index is relative within each strain; conditions: pdr5∆
Recorded protein stability index, one value per entry.

Sequence content: GSFNEMKRNCGQIITLF [RMP1]
protein stability index: 2.91
//
Sequence content: KDERDTWIHSEIEELKS [SMC3]
protein stability index: 3.02
//
Sequence content: VEVIKQLSLDASKTNLR [GAL11]
protein stability index: 2.62
//
Sequence content: ERYFDCCTKFFTMMTSE [PCI8]
protein stability index: 2.44
//
Sequence content: VISSGPLAAGNFVSEKG [RPC53]
protein stability index: 3.13
//
Sequence content: PSNSTTTLHGPGFQLPN [SRB8]
protein stability index: 2.85
//
Sequence content: SRPLKKVKILEQIDENW [SWI3]
protein stability index: 3.11
//
Sequence content: KCIKYSEKLITKYFEPT [ECM29]
protein stability index: 3.03
//
Sequence content: ALKKSRSKGKQNRPYNH [RPC17]
protein stability index: 2.46
//
Sequence content: TFHDYDMVKLDINPPLV [RRP42]
protein stability index: 2.73
//
Sequence content: WNLEKWREIIEKVRDYE [IRR1]
protein stability index: 3.41
//
Sequence content: IRRYCDVVAHRQLAGAI [DIS3]
protein stability index: 2.2
//
Sequence content: GVEEEEELKDSEINEIL [SNF2]
protein stability index: 3.33
//
Sequence content: CRQEFLERVKANAAKRA [RPL21A]
protein stability index: 1.33
//
Sequence content: DGDASKPAFSFGAKSDE [YJL041W/NSP1]
protein stability index: 3.26
//
Sequence content: YTKPYPNFEASFVHGVV [SMC2]
protein stability index: 2.32
//
Sequence content: LITPAVRNTAPNIRELG [YCG1]
protein stability index: 2.76
//
Sequence content: SVSMLLQYYILEYMNTA [RRI2]
protein stability index: 2.34
//
Sequence content: TLNPKTGHLFLKIIHTS [PRP8]
protein stability index: 1.91
//
Sequence content: NDIPQTESPLKTVDSSI [SSN2]
protein stability index: 3.01
//
Sequence content: PRSDDLEATWNFIEPGI [CDC53]
protein stability index: 3.29
//
Sequence content: ITSLYALIRRDFTLIPR [CDC53]
protein stability index: 1.28
//
Sequence content: LKEQSEQLKEQMEDMEE [SMC4]
protein stability index: 2.92
//
Sequence content: RQFEVKQLQLAMHNSKA [POP1]
protein stability index: 2.17
//
Sequence content: LQESINHVMYTEVSRKS [ECM29]
protein stability index: 2.74
//
Sequence content: VSKSEPKFFLGEENRVR [QCR2]
protein stability index: 3.18
//
Sequence content: NNDDDDNSVEQGRRLGE [MCD1]
protein stability index: 3.46
//
Sequence content: ASSNFPFLNETKPGVYY [RPC82]
protein stability index: 2.43
//
Sequence content: DVVAKLEAKRKVSSAEY [RPL16A]
protein stability index: 1.7
//
Sequence content: GESEKSSDVDMDDEEWR [RPC53]
protein stability index: 3.63
//
Sequence content: SFLEKPKFAIQDNHHIT [YMR129W/POM152]
protein stability index: 2.81
//
Sequence content: DHLVSSIPMGGQSINDS [ARP9]
protein stability index: 2.89
//
Sequence content: QQLAYDLSISALLGDKI [RPN9]
protein stability index: 2.67
//
Sequence content: HKHREARGLTATGKKSR [RPL15A]
protein stability index: 3.37
//
Sequence content: TLLYEQIIQRDKINKYS [SNF5]
protein stability index: 3.35
//
Sequence content: PNKVKTEDIRIRAQNFK [RRP6]
protein stability index: 2.88
//
Sequence content: SDEKKDGDASKPAFSFG [YJL041W/NSP1]
protein stability index: 2.64
//
Sequence content: EATLESKLKEEEAALLI [ESC2]
protein stability index: 3.05
//
Sequence content: ELNVKHVKQCQETCDKL [SMC2]
protein stability index: 3.47
//
Sequence content: GGGYFSAAGMTAAIDSV [FAS1]
protein stability index: 3.23
//
Sequence content: TTLTIMRILPRETDPLV [RPT4]
protein stability index: 2.62
//
Sequence content: SMVLFFVCLSCSHIFTS [RPB9]
protein stability index: 1.4
//
Sequence content: KESAVISKQKSKLDYIF [SMC1]
protein stability index: 2.81
//
Sequence content: YKWTQGINNLSEIWDVS [PRP8]
protein stability index: 2.9
//
Sequence content: LMSCISVGTDPMPIITF [RPB2]
protein stability index: 1.71
//
Sequence content: AVVVGTGNIKHEDLVNS [COR1]
protein stability index: 2.79
//
Sequence content: TPSSNSNSSELEPDYQA [MED1]
protein stability index: 2.96
//
Sequence content: TKPNVLNDPSLKIQFIL [SIN4]
protein stability index: 2.36

----------
Recorded protein stability index, one value per entry.
assay: protein stability index of a GFP-peptide fusion (yeast GPS) (PSI 1-4); higher = more stable; sorted into four equal gates, so the index is relative within each strain; settings: pdr5∆

Sequence content: ANLLFKKEKLKQENSTL [RPC82]
protein stability index: 2.24

Sequence content: AIHIFESYYNWKYNNFL [YML103C/NUP188]
protein stability index: 1.6

Sequence content: LTSNISSLVRSCGEEEF [REC8]
protein stability index: 2.78

Sequence content: VMRNTYNTRKNAVTAAA [GAL11]
protein stability index: 1.94

Sequence content: GLKFASFIFQYYGLVID [PRP8]
protein stability index: 1.27

Sequence content: HYGLAVDIYTHFTSPIR [DIS3]
protein stability index: 1.86

Sequence content: GQMAPIGTGAFDVMIDE [RPO21]
protein stability index: 2.3

Sequence content: KKVKSASKKSGGDVVKF [SMC4]
protein stability index: 3.68

Sequence content: RKVEKEKNEKEREIKRR [UBP6]
protein stability index: 3.27

Sequence content: ATAFNKTRGPFHFRAPS [RPL16A]
protein stability index: 3.07

Sequence content: TRSKRLSQVYPTLVRSV [CSN12]
protein stability index: 2.1

Sequence content: SRTRAHAQSKREGRHSG [RPL19A]
protein stability index: 2.85

Sequence content: QLDFTEFDEQYGTRPLV [SNF2]
protein stability index: 3.02

Sequence content: PQLSKAGKFPTPVSHND [RPL1A]
protein stability index: 2.87

Sequence content: LRLKPGRKYTTLGKLST [RPL16B]
protein stability index: 2.64

Sequence content: ITKLHLDKDRKALIQRK [RPL26A]
protein stability index: 1.92

Sequence content: LSEWEEYLKGSESQLNS [YCS4]
protein stability index: 3.65

Sequence content: QSLLSLYFEIIHGVLKN [FAS2]
protein stability index: 1.84

Sequence content: LEKFLQGRDTSKLPDPE [SRP72]
protein stability index: 2.2

Sequence content: KSKERSSQFVRLASEPG [YMR129W/POM152]
protein stability index: 2.62

Sequence content: RNNLPAKTFGASVRIFL [RPL33A]
protein stability index: 2.76
